The measured values listed here are drawn from PubChem BioAssay AID1851.

ASSAY_TARGET: Cytochrome P450 2C19 (Homo sapiens)
ASSAY_NOTES: Cytochrome panel assay with activity outcomes
MEASUREMENT_PARAMETERS: recombinant CYP, pro-luciferin dealkylation, luminescence, p450-cyp2c19; series mostly up to 57.1 µM
In all, about 16,000 compounds went through this assay and about 5,800 (36%) were called active. Roughly 23% stayed inconclusive and do not appear here. Calls come from the whole dose curve; as a rule, active = well fitted curve in the direction sought with a large enough effect; inconclusive = small, poorly fitted or top-dose-only effect, or effect the other way; inactive = no such curve, though single readings can be large or run the other way. The list shows a part of the results.
Could you please pick one outcome from this set? t for active, f for inactive

Use these answered entries as a reference point.
# COMPOUND, ASSIGNED_CATEGORY
data = [
    ("CC(=O)N1CCC2(CCCN(C(c3ccccc3)c3ccccc3)C2)CC1", "t"),
    ("CCOC(=O)C1=C(C)NC(=S)NC1c1cccc(O)c1 (centres undefined)", "t"),
    ("CC(C)N(CCNC(=O)C1CCC(=O)N1Cc1ccc(F)cc1)Cc1ccccc1 (centres undefined)", "t"),
]

I would be grateful if you could indicate the recorded call for "NC(=O)/C(=C\c1ccncc1)c1cccc2ccccc12" .
t

// param item: "O=c1sc2ccccc2n1CCCOc1ccccc1" ; yields the recorded call
t

* * *

ASSAY_TARGET: Cytochrome P450 2C19 (Homo sapiens)
ASSAY_NOTES: Cytochrome panel assay with activity outcomes
MEASUREMENT_PARAMETERS: recombinant CYP, pro-luciferin dealkylation, luminescence, p450-cyp2c19; series mostly up to 57.1 µM
Screen size: about 16,000 compounds; about 5,800 (36%) were called active. Not shown: some 23% with an inconclusive outcome. Calls follow the shape of the dose curve; as a rule, active = well fitted curve in the direction sought with a large enough effect; inconclusive = small, poorly fitted or top-dose-only effect, or effect the other way; inactive = no such curve, though single readings can be large or run the other way. The list shows a part of the results.
Answer with one of the outcomes given here: True for active, False for inactive

# MOLECULE, ASSIGNED_CATEGORY
measured = [
    ("O=C(O)/C=C\\c1cnc[nH]1", "False"),
]

Can you look up the reported call for "COc1ccc(-n2c(=O)c(-c3ccc(Cl)cc3)nc3cnc(N4CCOCC4)nc32)cc1" for me?
True

Hi, sorry to bother you, what did the test record for "COc1cccc(Cn2c(=O)c(-c3ccc(Cl)cc3)nc3cnc(N4CCN(C)CC4)nc32)c1" ?
False

Hello, I am checking results. What call was entered for NC1(C(=O)O)C[C@H](C(=O)O)[C@H](C(=O)O)C1 (some centres undefined) ?
True

Recorded call for "COc1cccc(Cn2c(=O)c(-c3cccs3)nc3cnc(N4CCNCC4)nc32)c1" ?
True

* * *

ASSAY_TARGET: Cytochrome P450 2C19 (Homo sapiens) (UniProt P33261)
Sequence (P33261 whole entry, looked up): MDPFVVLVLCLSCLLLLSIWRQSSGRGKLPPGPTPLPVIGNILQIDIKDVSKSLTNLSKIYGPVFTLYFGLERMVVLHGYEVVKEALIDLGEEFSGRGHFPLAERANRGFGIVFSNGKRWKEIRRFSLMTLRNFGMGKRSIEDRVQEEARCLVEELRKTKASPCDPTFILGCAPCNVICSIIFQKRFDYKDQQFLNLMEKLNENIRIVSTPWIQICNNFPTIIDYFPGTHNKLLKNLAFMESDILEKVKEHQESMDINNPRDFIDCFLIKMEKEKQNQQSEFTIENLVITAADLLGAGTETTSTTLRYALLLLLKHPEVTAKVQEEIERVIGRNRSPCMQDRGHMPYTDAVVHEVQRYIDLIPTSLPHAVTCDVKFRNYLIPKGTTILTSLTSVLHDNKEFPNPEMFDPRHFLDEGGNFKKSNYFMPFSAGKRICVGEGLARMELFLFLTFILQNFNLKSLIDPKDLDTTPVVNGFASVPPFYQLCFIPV
ASSAY_NOTES: Cytochrome panel assay with activity outcomes
MEASUREMENT_PARAMETERS: recombinant CYP, pro-luciferin dealkylation, luminescence, p450-cyp2c19; series mostly up to 57.1 µM
The whole screen tested about 16,000 compounds, of which about 5,800 (36%) were called active. Roughly 23% stayed inconclusive and do not appear here. The call rests on the fitted dose curve; in most records, active means well fitted curve in the direction sought with a large enough effect; inconclusive means small, poorly fitted or top-dose-only effect, or effect the other way; inactive means no such curve, though single readings can be large or run the other way. This is one part of the list.
One label from this list, please: Y (active), N (inactive)

# MOLECULE, ASSIGNED_CATEGORY
records = [
    ("CS(=O)(=O)N1CCC2(CCN(Cc3nccs3)CC2)CC1", "N"),
    ("N#Cc1cccc(-c2nc3cnc(Oc4cccc(Cl)c4)nc3n(C3CC3)c2=O)c1", "N"),
    ("Cc1oc(C(C)(C)C)cc1C(=O)Nc1cccc(/C=C/C(=O)O)c1", "N"),
]

Entry OC1(c2ccc(OC(F)F)cc2)CSC(=Nc2cccnc2)N1C1CC1 (stereo unspecified) : call = ?
Y

// outcome(item) with item = "O=C(Nc1ccc(S(=O)(=O)N2CCCC2)cc1)c1ccc(CN2CCOCC2)cc1"
N

Given "Cc1oc(-c2ccccc2)cc1C(=O)Nc1ccc(N(C)C)cc1" , state the outcome it received in this test.
Y

Which outcome was entered for the molecule "CCCCCCCCCCCCCC(=O)O[C@H](CC(=O)O)C[N+](C)(C)C" in this test?
N

Hi, sorry to bother you, what did the test record for "COc1cccc(Cn2c(=O)cnc3cnc(N4CCN(C)CC4)nc32)c1" ?
N

Hi, do you know how "COc1cccc(Cn2c(=O)cnc3cnc(Oc4cccc(Cl)c4)nc32)c1" came out in this test?
Y

Call for entry "O=c1c(-c2cccs2)nc2cnc(Oc3ccccc3)nc2n1Cc1cccs1" :
N

What is the recorded call for this molecule in the test? "COc1ncc2nc(-c3ccc(F)cc3)c(=O)n(Cc3ccc(F)cc3)c2n1"
N

* * *

ASSAY_TARGET: Cytochrome P450 2C19 (Homo sapiens)
ASSAY_NOTES: Cytochrome panel assay with activity outcomes
MEASUREMENT_PARAMETERS: recombinant CYP, pro-luciferin dealkylation, luminescence, p450-cyp2c19; series mostly up to 57.1 µM
Method: The P450 gene superfamily is involved in the metabolism and clearance of xenobiotics. This assay used various human CYP P450 isozymes to measure the dealkylation of various pro-luciferin substrates to luciferin. The luciferin is then measured by luminescence after the addition of a luciferase detection reagent. […] Inhibitors and some substrates limit the production of luciferin, and decrease measured luminescence. […] 8, Detection, 1 sec, ViewLux luminescent read […]
Hit rate of the full screen: of about 16,000 compounds, about 5,800 (36%) were called active. Not shown: some 23% with an inconclusive outcome. Some of the results follow.
MEASURED_METRIC: AC50

# MOLECULAR_STRING, AC50
rows = [
    ("C=CCNCCOCCOc1ccc(C)cc1[N+](=O)[O-]", "inactive"),
    ("O=C(Nc1ccnc(-c2cccnc2)n1)c1cccc(Cl)c1Cl", "2.82 µM (active)"),
    ("C[C@@H](C(=O)O)c1ccc(C(=O)c2ccccc2)s1", "3.98 µM (active)"),
    ("CCNc1ncc2nc(C)c(=O)n(Cc3cccs3)c2n1", "inactive"),
    ("C[C@@H](C(=O)O)c1ccc(C(=O)c2cccs2)cc1", "inactive"),
    ("O=C(NC1CCCCC1)c1sc(=S)n2c1[nH]c(=O)c1ccccc12", "4.47 µM (active)"),
    ("CC(C)(C)C(=O)Nc1ccnc(-c2cccnc2)n1", "2.24 µM (active)"),
    ("CCCn1c(N)c(C(=O)CSc2nc(C)cs2)c(=O)n(C)c1=O", "10 µM (active)"),
    ("COC(=O)CSc1cc(C(F)(F)F)nc(-c2ccccn2)n1", "inactive"),
    ("Cc1ccc(NC(=O)N/C=C/c2ccco2)cc1C", "3.16 µM (active)"),
]

# input compound: "Cc1ncc(N=Nc2ccccc2Cl)c(-c2ccccc2)n1" ; wanted: its AC50
14.1 µM (active)

// returns reported AC50 for input "CC(=O)Nc1ccnc(-c2cccnc2)n1"
inactive

* * *

ASSAY_TARGET: Cytochrome P450 2C19 (Homo sapiens) (UniProt P33261)
ASSAY_NOTES: Cytochrome panel assay with activity outcomes
MEASUREMENT_PARAMETERS: recombinant CYP, pro-luciferin dealkylation, luminescence, p450-cyp2c19; series mostly up to 57.1 µM
In all, about 16,000 compounds went through this assay and about 5,800 (36%) were called active. Another 23% or so got no clear call; they are omitted. Calls come from the whole dose curve; as a rule, active = well fitted curve in the direction sought with a large enough effect; inconclusive = small, poorly fitted or top-dose-only effect, or effect the other way; inactive = no such curve, though single readings can be large or run the other way. The list shows a part of the results.
Hi! Could you answer with just one of these? 1.0 = active, 0.0 = inactive

As a guide, the following entries are already answered.
# COMPOUND, ASSIGNED_CATEGORY
rows = [
    ("N#Cc1ccc(CN2CCCC3(CCN(S(=O)(=O)c4ccccc4)CC3)C2)cc1", 1.0),
    ("Cc1ccc(C2=NN(S(C)(=O)=O)C(c3cccs3)C2)cc1 (stereo unspecified)", 1.0),
    ("CCCCNC(=O)NC1C(NC(=O)NCCCC)N(C)C(=O)N1C (stereo unspecified)", 0.0),
    ("O=S(=O)(c1ccccc1)N1CCC2(CCCN(Cc3ccncc3)C2)CC1", 1.0),
    ("CCCCNC(=S)NNC(=O)CCn1nc(C)c(Br)c1C", 1.0),
]

// next entry
Record lookup: outcome of this test for "C[C@]1(C2CCCC2)Cc2cc(OCC(=O)O)c(Cl)c(Cl)c2C1=O" ?
0.0

* * *

ASSAY_TARGET: Cytochrome P450 2C19 (Homo sapiens)
ASSAY_NOTES: Cytochrome panel assay with activity outcomes
MEASUREMENT_PARAMETERS: recombinant CYP, pro-luciferin dealkylation, luminescence, p450-cyp2c19; series mostly up to 57.1 µM
Among all 16,000 compounds or so, about 5,800 (36%) were called active. Roughly 23% stayed inconclusive and do not appear here. Calls come from the whole dose curve; as a rule, active = well fitted curve in the direction sought with a large enough effect; inconclusive = small, poorly fitted or top-dose-only effect, or effect the other way; inactive = no such curve, though single readings can be large or run the other way. Some of the results follow.
Use one of these outcomes when replying: label 1 = active, label 0 = inactive

Below are worked cases with known answers.
# COMPOUND, ASSAY_TARGET, ASSIGNED_CATEGORY
measured = [
    ("CCOC(=O)CNC(=O)c1cccnc1", "Cytochrome P450 2C19 (Homo sapiens)", "label 0"),
    ("CS(=O)(=O)Nc1cccc(-c2nc(N3CCNCC3)c3ccccc3n2)c1", "Cytochrome P450 2C19 (Homo sapiens)", "label 0"),
    ("Cc1ccc(S(=O)(=O)NCC(=O)N(CC(=O)NCc2ccco2)Cc2cccs2)cc1", "Cytochrome P450 2C19 (Homo sapiens)", "label 1"),
    ("CSC1(SC2=NCCN2)SC2(NCCN2)S1", "Cytochrome P450 2C19 (Homo sapiens)", "label 1"),
    ("CN(C)C(=O)c1ccc(-c2cncnc2N2CCNCC2)cc1", "Cytochrome P450 2C19 (Homo sapiens)", "label 0"),
]

For "CCC(=O)Nc1cc2c(cc1C(=O)c1ccccc1)OCCO2" , what call appears in the results of this test?
label 1

Name the outcome recorded for "CNc1nc(-c2cccc(NS(C)(=O)=O)c2)nc2ccccc12" in the assay.
label 0

Could you check what this test reported for "CC[C@]1(O)C[C@@H]2CN(CCc3c([nH]c4ccccc34)[C@](C(=O)OC)(c3cc4c(cc3OC)N(C=O)[C@H]3[C@@](O)(C(=O)OC)[C@H](C(=O)OC)[C@@]5(CC)C=CCN6CC[C@]43[C@H]65)C2)C1" ?
label 0

Any idea what this test logged for "COc1cc2c(cc1OC)[C@H](c1ccccc1)CN(C)CC2" ?
label 0

Recorded test outcome, item "COc1ccc(-c2cc(C(F)(F)F)nc(NCc3cccnc3)n2)cc1"
label 1

Could you please tell me the result logged for COC(=O)c1ccc(OCC2c3cc(OC)c(OC)cc3CCN2C(=O)C2CC2)cc1 (stereo not drawn) in this assay?
label 1

Record request — test call for "N#Cc1cccc(-c2nc(Nc3ccncc3)c3ccccc3n2)c1"
label 0

Any idea what this test logged for "COc1cccc(-c2nc(NCc3cccnc3)c3ccccc3n2)c1" ?
label 1

Lab log entry: "Cc1ccc(S(=O)(=O)N(Cc2ccccc2)c2ccccc2C(=O)NCc2ccco2)cc1" — outcome as called in the assay?
label 1

Recorded test call requested for "CC(C)C(=O)Nc1cc2c(cc1C(=O)c1ccccc1)OCCO2"
label 0

Given "COc1ccc(OCCn2c(C)c(/C=N/n3cnnc3)c3ccccc32)cc1" , state the outcome it received in this test.
label 1

Called result for COc1cccc(CN2C(=O)N(C(C)C)C(N(O)C(=O)NC(C)C)C2(C)C)c1OC (stereo not drawn)
label 1

GET /call?item= Nc1cc2c(nc3c4ccccc4c(N)cc3[n+]2-c2cccc3ccccc23)c2ccccc12 (tested in a mixture with another compound) returns the recorded outcome of this test.
label 1

Recorded call for "O=C(Nc1cccc(-c2cnc3ccccc3n2)c1)c1ccc(Cl)cc1" ?
label 0

# outcome recorded in this test, key = "COc1ccc(-c2cc(=O)c3c(O)cc(O)cc3o2)cc1"
label 1

For this compound, state the assay outcome: "N#Cc1cccc(NC(=O)N2CCCC3(CCN(C(=O)c4csnn4)CC3)C2)c1"
label 0
